- test: chemical genetic growth profiling, strain panel (AID 1159580);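 note: tested at 20 µM; growth read once vehicle control cultures reached saturation at 30 °C; 1 = growth at the plate median or of vehicle wells; lower values mean less growth of the strain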
- conditions_used: S. cerevisiae deletion strains, growth OD, locus YNL322C, strain KRE1, hits give low values
Out of some 5,500 compounds screened, about 2,000 (36%) were called active. About 18% were inconclusive and are not listed. Some of the results follow.
reported_endpoint: normalized growth
Provide a numeric answer; units are not to be included.

stdin: Return reported normalized growth; argument: Cc1ccc(S(=O)(=O)Oc2cc(=O)n(C)c3ccccc23)cc1
stdout: 0.977

stdin: Item: CCCCC(=O)N(Cc1ccc(-c2ccccc2-c2nn[nH]n2)cc1)[C@H](C(=O)O)C(C)C
stdout: 0.981

stdin: Item: O=c1n(CCCN2CCN(c3cccc(Cl)c3)CC2)nc2ccccn12
stdout: 0.997

stdin: Item: COc1ccc(-n2nc(C(F)(F)F)cc2-c2ccc(Cl)cc2)cc1
stdout: 1.02

stdin: Item: C[C@]12CCC3c4ccc(O)cc4CCC3C1CC[C@@H]2OC(=O)CCC1CCCC1 (stereo partly drawn)
stdout: 0.998

Source listed as PubChem BioAssay AID1159580.
